The measured values listed here are drawn from patent US20080200392A1.

tested target: preformed immune complex of peroxidase-rabbit anti-peroxidase IgG (PAP complex) (rabbit; horseradish) (UniProt P00433)
Sequence (P00433 31-338, one chain of several): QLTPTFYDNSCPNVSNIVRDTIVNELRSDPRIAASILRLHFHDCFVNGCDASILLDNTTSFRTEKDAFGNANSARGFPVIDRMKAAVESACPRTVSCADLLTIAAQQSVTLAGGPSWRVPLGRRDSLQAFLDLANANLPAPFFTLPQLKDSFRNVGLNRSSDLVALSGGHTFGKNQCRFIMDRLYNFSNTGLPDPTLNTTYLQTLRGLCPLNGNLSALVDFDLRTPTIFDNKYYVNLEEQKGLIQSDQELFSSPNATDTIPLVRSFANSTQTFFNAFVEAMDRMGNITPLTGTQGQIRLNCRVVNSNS
experiment description: reverse ELISA competition: PAP pre-incubated with peptide, then on C1q-coated plate; signal is PAP bound to C1q (competitor: immobilized human C1q)
No end group written: not given here.
property measured: OD 405 nm (OD 405 nm)

Examples with answers:
APPCAFHLGELVWCT (not fully specified; cysteine pairing not given here) [… (SEQ ID NO:15)]    0.983
DCAFHLGELVWCT [… (SEQ ID NO:3)]    0.859

[A] APPDCAWHLGELVWCT [… (SEQ ID NO:16)]
[B] APPCARHLGELVWCT (not fully specified; cysteine pairing not given here) [… (SEQ ID NO:14)]
[Q] Sort A and B by OD 405 nm descending and give the first. In your reply, give the label of the chosen option.
[A] B
